Listing: NADPH fluorescence slope of selected molecules
# tested.system: Voltage-gated potassium channel subunit beta-2 (Rattus norvegicus)
# assay.protocol: KvBeta positive modulators, primary screen, biochemical, NADPH fluorescence (AID 623);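 also: fluorescence intensity change per second fitted from 20 to 320 s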
# particulars: Recombinant KvBeta, NADPH fluorescence decrease slope, 10 min; at 10 µM; hits give low values
// return a plain number; no unit text

molecule: O=S1(=O)CC(N2CCOCC2)c2ccccc21 (stereo unspecified)
NADPH fluorescence slope: -1.6e-05
--
molecule: O=C(CS(=O)(=O)c1cn(Cc2ccc(Cl)cc2)c2ccccc12)N1CCCC1
NADPH fluorescence slope: -3.5e-05
--
molecule: CCn1c(SCC(=O)C(C)(C)C)nnc1-c1cnccn1
NADPH fluorescence slope: -6.4e-06
--
molecule: CCOC(=O)N1CCN(c2c(NCCCOC(C)C)c(=O)c2=O)CC1
NADPH fluorescence slope: -2.4e-05
--
molecule: C=CCn1c(=O)c(C(=O)NCCN(CC)CC)c(O)c2ccccc21
NADPH fluorescence slope: -2.4e-05

Here's the next entry for you.
Consider the molecule shown here: "CCOC(=O)Cn1c(CN(C)Cc2ccccc2)nc2c1c(=O)n(C)c(=O)n2C" What is its recorded NADPH fluorescence slope? -3.7e-05

====

# assay.protocol: inhibitors of Sendai virus-induced IRF3 signaling, primary screen, TLR/RLR signaling modifier project, cell-based, Sendai virus stimulus, luciferase, 10K MLSCN set (AID 602276);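 also: firefly luciferase from ISG56 promoter only with Renilla not read in this screen; 0% = Sendai virus plus DMSO and 100% = medium plus DMSO without virus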
# particulars: HEK293 RL24 IRF3 luciferase reporter, at 10 µM, hits give high values
Lab note: compare inhibition against 10%. Equal or greater, write t. Smaller, write f.

molecule: CC(C)Cn1c(=O)c(C2=NS(=O)(=O)c3ccccc3N2)c(O)c2ccccc21
discrete.label: t
//
molecule: COc1ccc(NC(=O)C(C)NS(=O)(=O)c2ccccc2)cc1Cl (stereo unspecified)
discrete.label: f
//
molecule: CCN(CC)CCn1c(OC)cc(=O)[nH]c1=O
discrete.label: t

# check: inhibition of "CC(C)(C)Nc1nc(NC(C)(C)C)nc(-n2ccnc2)n1" is greater than or equal to 10% t

Can you check "Cc1cccc(NC(=O)CSc2nnc(-c3ccccc3C)o2)c1" next? f

====

# assay.protocol: inhibitors of Sendai virus-induced IRF3 signaling, primary screen, TLR/RLR signaling modifier project, cell-based, Sendai virus stimulus, luciferase, 10K MLSCN set (AID 602276);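 also: firefly luciferase from ISG56 promoter only with Renilla not read in this screen; 0% = Sendai virus plus DMSO and 100% = medium plus DMSO without virus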
# particulars: HEK293 RL24 IRF3 luciferase reporter, at 10 µM, hits give high values
# inhibition annotations
# unit: % | format: bare number

Some solved cases for reference:
molecule: O=C(NCc1ccccn1)c1cccs1
unit.abbrev: %
inhibition: -4.29
--
molecule: CCOC(=O)c1sc2nc(NC(=O)C3CCCCC3)sc2c1C
unit.abbrev: %
inhibition: -10.3
--
molecule: COc1ccc(N2C(N)=C(C#N)C(c3cccnc3)C3=C2CC(C)(C)CC3=O)cc1 (stereo unspecified)
unit.abbrev: %
inhibition: 37.2
--
molecule: Cc1cc(NC(=O)c2cccc(S(=O)(=O)N3CC(c4ccccc4)CC3=O)c2)no1 (stereo unspecified)
unit.abbrev: %
inhibition: 8.54
--
molecule: C/C=C/Cn1c(Br)nc2c1c(=O)[nH]c(=O)n2C
unit.abbrev: %
inhibition: 15.1
--
molecule: CC(=O)C1=C(C)NC(=O)NC1c1cccc(O)c1 (stereo unspecified)
unit.abbrev: %
inhibition: 14.2
--
molecule: COC(=O)c1[nH]c(C)c(/C(O)=C2\C(=O)C(=O)N(CCN3CCOCC3)C2c2cccs2)c1C (stereo unspecified)
unit.abbrev: %
inhibition: 15.2
--
molecule: CS(=O)(=O)N1CCN(c2ccccc2NC(=O)c2ccc(-c3ccc(Cl)cc3Cl)o2)CC1
unit.abbrev: %
inhibition: 12

Item CC(NC(=O)c1noc2c1CCCCC2)c1ccccc1 (stereo unspecified) has what recorded inhibition? -24.9

Param item: "COCCNC(=O)c1cc(-c2cccs2)on1" -27.2

Now give it for "CC(C)(C)C(=O)Cn1c[n+](N)cn1" too. 18.9
